# measured on: T1, ALPP antigen (alkaline phosphatase, placental), coated on ELISA plates (UniProt P05187 23-506, limits assumed)
# T1 construct: 125 ng ALPP antigen was coated per plate/well; the general description concerns human ALPP; also called PLAP; placental alkaline phosphatase
# method notes: ELISA, plate coated with 125 ng ALPP antigen, biotin goat anti-human and streptavidin-HRP, OD450
# Description: Enzyme-linked immunosorbent assay (ELISA) plates were coated with 125 ng ALPP antigen. After blocking the plates, serial dilutions of anti-ALPP antibodies including A02 (H17E2), A04, A05, A06, A07, A08, A09, or a chimeric antibody were added to corresponding wells. […] Binding curves and calculated EC₅₀ values are shown in FIG. 10A and the table below, respectively.
endpoint name: EC50 (ng/mL)
Write it as a number; the unit ng/mL goes unstated.

binder | result
humanized anti-ALPP antibody A06 (antibody, V domains shown, Detected with a goat anti-human secondary antibody; also called A06Ab) VH: QVQLKESGPGLVAPSQTLSLTCTVSGFSLTSYGVSWIRQPPGKGLEWIGVIWEDGSTNYHSALISRVSISVDTSKSQFSLKLSSVDAADTAVYYCAKPHYGSSYVGAMEYWGQGTTVTVSS VL: DIQMTQSPSSLSASVGDRVTITCRASENIYSYVAWYQQKPGKAPKLLIYNAKSLAEGVPSRFSGSGSGTDFTLTISSLQPEDFANYYCQHHYVSPWTFGQGTKVEIK | 3.7

Lookup: Could you tell me which EC50 is on file for humanized anti-ALPP antibody A04 (antibody, V domains shown, Detected with a goat anti-human secondary antibody; also called A04Ab) VH: QVQLQESGPGLVAPSQTLSLTCTVSGFSLTSYGVSWIRQPPGKGLEWIGVIWEDGSTNYHSALISRVSISVDTSKSQFSLKLSSVDAADTAVYYCARPHYGSSYVGAMEYWGQGTTVTVSS VL: DIQMTQSPSSLSASVGDRVTITCRASENIYSYVAWYQQKPGKAPKFLIYNAKSLAEGVPSRFSGSGSGTDFTLTISSLQPEDFANYYCQHHYVSPWTFGQGTKVEIK ?
Found: 5.89
